Value source: paper PMC2568900

- target_or_system: PDHK2-T302A (Rattus norvegicus, UniProt Q64536, T310A)
- experiment: ATP, ADP and DCA binding by quenching of intrinsic tryptophan fluorescence
- cond: no fixed ligand, 25 °C
value_kind: Kd (µM)
# value in µM; strip the unit string

The compound Nc1ncnc2c1ncn2[C@@H]1O[C@H](COP(=O)(O)OP(=O)(O)OP(=O)(O)O)[C@@H](O)[C@H]1O on PDHK2-T302A (Rattus norvegicus, UniProt Q64536, T310A): Kd was 60

* * *

- target_or_system: PDHK2-Y320F (Rattus norvegicus, UniProt Q64536, Y328F)
- experiment: ATP, ADP and DCA binding by quenching of intrinsic tryptophan fluorescence
- cond: Kd, fixed ligand ADP (50 μM)
value_kind: Kd (µM)
Give your result in µM as a bare value.

Recorded Kd for O=C(O)C(Cl)Cl [DCA, dichloroacetate] on PDHK2-Y320F (Rattus norvegicus, UniProt Q64536, Y328F) was 33
